Tested on: S1507-2
Experiment: % inhibition of CellTiter-Glo viability at highest tested concentration (72 h), relative to DMSO and benzethonium chloride controls; higher = more inhibition
The following compounds are listed with their measured % inhibition values.
Measure name: % inhibition (%)

{"Compound": "c1cc(CN2CCCNCCNCCCNCC2)ccc1CN1CCCNCCNCCCNCC1 [Plerixafor aq] (max concentration tested 10000 nM)", "Units label": "%", "Reported": -14.1}
{"Compound": "Cc1cn(-c2cc(NC(=O)c3ccc(C)c(Nc4nccc(-c5cccnc5)n4)c3)cc(C(F)(F)F)c2)cn1 [Nilotinib] (max concentration tested 10000 nM)", "Units label": "%", "Reported": 2.99}
{"Compound": "COc1cc(OC2CCN(C)CC2)ccc1Nc1ncc2c(n1)n(C1CCCC1)c(=O)n2C [AZ 3146] (max concentration tested 10000 nM)", "Units label": "%", "Reported": 87.9}
{"Compound": "COC1=CC(c2cc3ccccc3[nH]2)=N/C1=C\\c1[nH]c(C)cc1C [Obatoclax] (max concentration tested 10000 nM)", "Units label": "%", "Reported": 95.5}
{"Compound": "CC(C)(C)Cn1c(N)nc2ccc(-c3[nH]c(C(C)(C)C)nc3-c3ccc(F)cc3)nc21 [Ralimetinib] (max concentration tested 10000 nM)", "Units label": "%", "Reported": 33.8}
{"Compound": "O=C(O)C1(C(=O)O)CCC1.[NH2-].[NH2-].[Pt+2] [Carboplatin aq] (max concentration tested 100000 nM)", "Units label": "%", "Reported": 73.8}
{"Compound": "Cc1ccc(NC(=O)c2ccc(CN3CCN(C)CC3)cc2)cc1Nc1nccc(-c2cccnc2)n1 [Imatinib] (max concentration tested 10000 nM)", "Units label": "%", "Reported": 49.5}
{"Compound": "C=CC[C@@H]1/C=C(\\C)C[C@H](C)C[C@H](OC)[C@H]2O[C@@](O)(C(=O)C(=O)N3CCCC[C@H]3C(=O)O[C@H](/C(C)=C/[C@@H]3CC[C@@H](O)[C@H](OC)C3)[C@H](C)[C@@H](O)CC1=O)[C@H](C)C[C@@H]2OC [Tacrolimus] (max concentration tested 10000 nM)", "Units label": "%", "Reported": 6.29}
{"Compound": "C[C@@H]1C[C@H]2[C@@H]3CCC4=CC(=O)C=C[C@]4(C)[C@@]3(F)[C@@H](O)C[C@]2(C)[C@@]1(O)C(=O)CO [Dexamethasone] (max concentration tested 10000 nM)", "Units label": "%", "Reported": 16.5}
{"Compound": "CCS(=O)(=O)c1cccc(-c2cc(C(=O)NC3CCN(C)CC3)c(C)c3[nH]c4ncc(C)cc4c23)c1 [TAK-901] (max concentration tested 1000 nM)", "Units label": "%", "Reported": 23.5}
{"Compound": "CC[C@@]1(O)C(=O)OCc2c1cc1n(c2=O)Cc2cc3c(CN(C)C)c(O)ccc3nc2-1 [Topotecan] (max concentration tested 10000 nM)", "Units label": "%", "Reported": 93}

====

Tested on: HSC2 (primary human Schwann cells)
Assay: % inhibition of CellTiter-Glo viability at highest tested concentration (72 h), relative to DMSO and benzethonium chloride controls; higher = more inhibition
Response key: t means % inhibition >= 30%; f means % inhibition < 30%.

{"Molecule": "O=C1c2c(O)ccc(O)c2C(=O)c2c(NCCNCCO)ccc(NCCNCCO)c21 [Mitoxantrone] (max concentration tested 1000 nM)", "Discrete label": "t"}
{"Molecule": "COc1cc2c(Oc3ccc4[nH]c(C)cc4c3F)ncnc2cc1OCCCN1CCCC1 [Cediranib] (max concentration tested 1000 nM)", "Discrete label": "f"}
{"Molecule": "COc1cccc2c1C(=O)c1c(O)c3c(c(O)c1C2=O)C[C@@](O)(C(C)=O)C[C@@H]3O[C@H]1C[C@H](N)[C@H](O)[C@H](C)O1 [Daunorubicin] (max concentration tested 1000 nM)", "Discrete label": "t"}
{"Molecule": "Cn1c(CCCC(=O)O)nc2cc(N(CCCl)CCCl)ccc21 [Bendamustine] (max concentration tested 10000 nM)", "Discrete label": "f"}
{"Molecule": "O=C1CN2Cc3c(ccc(Cl)c3Cl)N=C2N1 [Anagrelide] (max concentration tested 10000 nM)", "Discrete label": "t"}
{"Molecule": "FC(F)c1nc2ccccc2n1-c1nc(N2CCOCC2)nc(N2CCOCC2)n1 [ZSTK474] (max concentration tested 10000 nM)", "Discrete label": "t"}
{"Molecule": "C=CCN(/C=C1/C(=O)O[C@H](COC)[C@@]2(C)C1=C(O)C(=O)C1=C2[C@H](OC(C)=O)C[C@]2(C)C(=O)CC[C@@H]12)CC=C [Sonolisib] (max concentration tested 10000 nM)", "Discrete label": "f"}
{"Molecule": "O=P1(NCCCl)OCCCN1CCCl (configuration not stated) [Ifosfamide] (max concentration tested 10000 nM)", "Discrete label": "f"}
{"Molecule": "Cn1cncc1[C@@](N)(c1ccc(Cl)cc1)c1ccc2c(c1)c(-c1cccc(Cl)c1)cc(=O)n2C [Tipifarnib] (max concentration tested 10000 nM)", "Discrete label": "t"}
{"Molecule": "Cc1c2oc3c(C)ccc(C(=O)N[C@@H]4C(=O)N[C@H](C(C)C)C(=O)N5CCC[C@H]5C(=O)N(C)CC(=O)N(C)[C@@H](C(C)C)C(=O)O[C@@H]4C)c3nc-2c(C(=O)N[C@@H]2C(=O)N[C@H](C(C)C)C(=O)N3CCC[C@H]3C(=O)N(C)CC(=O)N(C)[C@@H](C(C)C)C(=O)O[C@@H]2C)c(N)c1=O [Dactinomycin] (max concentration tested 1000 nM)", "Discrete label": "t"}
{"Molecule": "COc1cc(CCc2cc(NC(=O)c3ccc(N4CC(C)NC(C)C4)cc3)n[nH]2)cc(OC)c1 (configuration not stated) [AZD4547] (max concentration tested 1000 nM)", "Discrete label": "f"}
{"Molecule": "CC[C@H](CO)Nc1nc(NCc2ccccc2)c2ncn(C(C)C)c2n1 [Seliciclib] (max concentration tested 10000 nM)", "Discrete label": "t"}
{"Molecule": "CC(=O)[C@]1(O)Cc2c(O)c3c(c(O)c2[C@@H](O[C@H]2C[C@H](N)[C@H](O)[C@H](C)O2)C1)C(=O)c1ccccc1C3=O [Idarubicin] (max concentration tested 1000 nM)", "Discrete label": "t"}
{"Molecule": "Nc1nc(Cl)nc2c1ncn2[C@@H]1O[C@H](CO)[C@@H](O)[C@@H]1F [Clofarabine] (max concentration tested 10000 nM)", "Discrete label": "t"}
{"Molecule": "CC(=O)OC[C@H]1O[C@@H]([S-])[C@H](OC(C)=O)[C@@H](OC(C)=O)[C@@H]1OC(C)=O.CCP(CC)CC.[Au+] [Auranofin] (max concentration tested 2500 nM)", "Discrete label": "t"}
{"Molecule": "Nc1ncnc2c1c(COc1cccc(Cl)c1)nn2C1CCOCC1 (max concentration tested 10000 nM)", "Discrete label": "f"}
{"Molecule": "Nc1ncn([C@H]2C[C@H](O)[C@@H](CO)O2)c(=O)n1 [Decitabine] (max concentration tested 10000 nM)", "Discrete label": "f"}
{"Molecule": "COc1ccc(-c2ccc3c(N4CCOC[C@@H]4C)nc(N4CCOC[C@@H]4C)nc3n2)cc1CO [AZD8055] (max concentration tested 10000 nM)", "Discrete label": "t"}
{"Molecule": "CC1(C)CCC(CN2CCN(c3ccc(C(=O)NS(=O)(=O)c4ccc(NCC5CCOCC5)c([N+](=O)[O-])c4)c(Oc4cnc5[nH]ccc5c4)c3)CC2)=C(c2ccc(Cl)cc2)C1 [ABT-199] (max concentration tested 10000 nM)", "Discrete label": "f"}
{"Molecule": "COc1cc2c(N3CCN(C(=O)Nc4ccc(OC(C)C)cc4)CC3)ncnc2cc1OCCCN1CCCCC1 [Tandutinib] (max concentration tested 1000 nM)", "Discrete label": "f"}
{"Molecule": "COC1=C2C[C@@H](C)C[C@H](OC)[C@H](O)[C@@H](C)/C=C(\\C)[C@H](OC(N)=O)[C@@H](OC)/C=C\\C=C(/C)C(=O)NC(=CC1=O)C2=O [Geldanamycin] (max concentration tested 10000 nM)", "Discrete label": "t"}
{"Molecule": "Nc1nc(Cl)nc2c1ncn2[C@H]1C[C@H](O)[C@@H](CO)O1 [Cladribine] (max concentration tested 1000 nM)", "Discrete label": "t"}

====

Tested on: HS-Sch-2
Assay: % inhibition of CellTiter-Glo viability at highest tested concentration (72 h), relative to DMSO and benzethonium chloride controls; higher = more inhibition
Response key: condition met means % inhibition >= 60%; condition not met means % inhibition < 60%.

{"Compound": "NC(=O)N1CCC(CC(=O)N2CCC([C@H]3c4ncc(Br)cc4CCc4cc(Cl)cc(Br)c43)CC2)CC1 [Lonafarnib] (max concentration tested 10000 nM)", "Discrete label": "condition not met"}
{"Compound": "O=C(/C=C/c1cccnc1)NCCCCC1CCN(C(=O)c2ccccc2)CC1 [Daporinad] (max concentration tested 1000 nM)", "Discrete label": "condition met"}
{"Compound": "O=C1NC(=O)/C(=C/c2ccc3nccc(-c4ccncc4)c3c2)S1 (max concentration tested 10000 nM)", "Discrete label": "condition not met"}
{"Compound": "CC(C)Cn1cnc2c(N)nc3ccccc3c21 [Imiquimod] (max concentration tested 2500 nM)", "Discrete label": "condition not met"}
{"Compound": "Cn1cc(-c2ccc3nnc(C(F)(F)c4ccc5ncccc5c4)n3n2)cn1 (max concentration tested 10000 nM)", "Discrete label": "condition not met"}
{"Compound": "CCc1cncnc1N1CCN(Cc2nc3ccc(C(F)(F)F)cc3[nH]2)CC1 (max concentration tested 10000 nM)", "Discrete label": "condition not met"}
{"Compound": "Nc1nc(Cl)nc2c1ncn2[C@H]1C[C@H](O)[C@@H](CO)O1 [Cladribine] (max concentration tested 1000 nM)", "Discrete label": "condition met"}
